# test: Cell Viability - Jurkat (AID 426);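 further: potency means the concentration at half of the fitted maximal effect; cells exposed to compound for 40 hours at 37 °C before ATP read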
# assay_conditions: qHTS
# Text: NIH Chemical Genomics Center [NCGC] NIH Molecular Libraries Screening Centers Network [MLSCN] National Institutes of Environmental Health Sciences [NIEHS] National Toxicology Program [NTP] We have developed a 1536-well cell-based assay for quantitative high throughput screening (qHTS) against a number of cell lines to determine in vitro cytotoxicity of small molecules. […] 7. Detection; Luminescence; Viewlux plate reader […]
Inconclusive results are not listed. The source made the active and inactive calls.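 How the source made its calls: active means dose-dependent loss of cell ATP signal giving a full or clear fitted curve, ranked by lower potency value; inconclusive means weak partial curve or response only at the top dose; inactive means no loss of viability signal.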
# valid calls are yes (active), no (inactive); nothing else

Req: Assay result, entry C1CCCNCC1 — outcome?
Resp: no

Req: What was the test verdict on C/C(Cl)=C/CCl ?
Resp: no

Req: Please indicate how the test categorized C/C=C1/C(=O)C[C@H]2[C@@H]3CCC4=CC(=O)CC[C@]4(C)[C@H]3CC[C@]12C .
Resp: yes

Req: Hi team, can someone confirm the assay call for CCCCC(CC)COCCCN (stereo not given) ?
Resp: no

Req: Name the outcome recorded for CCCCCCCC/C=C\CCCCCCCC(=O)N(CCO)CCO in the assay.
Resp: yes
